Would you kindly list hFAP Binding assay k(on) for each of these molecules?
molecular target: hFAP (M39-A757) (Homo sapiens (Human)); experiment: hFAP binding assay (surface plasmon resonance); details: SPR, 20° C., single cycle kinetics
Sequence (Q12884 39-757): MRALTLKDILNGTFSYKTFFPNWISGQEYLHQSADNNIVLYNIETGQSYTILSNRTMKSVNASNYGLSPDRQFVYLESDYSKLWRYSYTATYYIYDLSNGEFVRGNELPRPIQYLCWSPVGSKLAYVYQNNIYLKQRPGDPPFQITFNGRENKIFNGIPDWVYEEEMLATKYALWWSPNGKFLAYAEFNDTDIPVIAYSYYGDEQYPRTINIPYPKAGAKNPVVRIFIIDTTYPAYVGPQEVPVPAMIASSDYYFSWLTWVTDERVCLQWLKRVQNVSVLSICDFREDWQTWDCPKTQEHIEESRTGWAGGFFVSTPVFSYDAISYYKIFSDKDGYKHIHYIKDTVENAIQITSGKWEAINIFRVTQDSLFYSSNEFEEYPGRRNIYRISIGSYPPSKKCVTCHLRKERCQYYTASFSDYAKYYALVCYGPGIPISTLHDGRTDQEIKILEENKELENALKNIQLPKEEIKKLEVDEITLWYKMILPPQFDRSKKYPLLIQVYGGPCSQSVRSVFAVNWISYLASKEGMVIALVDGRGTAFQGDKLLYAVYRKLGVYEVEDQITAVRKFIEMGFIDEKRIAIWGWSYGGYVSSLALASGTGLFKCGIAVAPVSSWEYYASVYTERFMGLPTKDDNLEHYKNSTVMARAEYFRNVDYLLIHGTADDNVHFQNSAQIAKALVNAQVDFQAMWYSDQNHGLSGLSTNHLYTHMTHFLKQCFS
Please state the value followed by its unit.

May I ask what hFAP Binding assay k(on) has been recorded for N#C[C@@H]1CSCN1C(=O)CNC(=O)c1ccnc2ccc(N3CCC34CCC4)cc12 ? 430000 M⁻¹ s⁻¹

Can you handle CO[C@@H]1CCN(c2ccc3nccc(C(=O)NCC(=O)N4CSC[C@H]4C#N)c3c2)C1 next? 14000000 M⁻¹ s⁻¹

Input N#C[C@@H]1CSCN1C(=O)CNC(=O)c1c(F)cnc2ccc(N3CCOCC3)cc12 410000 M⁻¹ s⁻¹

Try this molecule too: CC1(F)CCN(c2ccc3nccc(C(=O)NCC(=O)N4CSC[C@H]4C#N)c3c2)CC1 2200000 M⁻¹ s⁻¹

Lookup N#C[C@@H]1CSCN1C(=O)CNC(=O)c1ccnc2ccc(-c3cncnc3)cc12 6000000 M⁻¹ s⁻¹

Same question for COC[C@H]1COCCN1c1ccc2nccc(C(=O)NCC(=O)N3CSC[C@H]3C#N)c2c1 please. 3600000 M⁻¹ s⁻¹

How about CN1CCC(F)(c2ccc3nccc(C(=O)NCC(=O)N4CSC[C@H]4C#N)c3c2)CC1 ? 190000 M⁻¹ s⁻¹

And then N#C[C@@H]1CSCN1C(=O)CNC(=O)c1ccnc2ccc(N3CCCC4(CC4)C3)cc12 , what is it? 3000000 M⁻¹ s⁻¹

Also, N#C[C@@H]1CSCN1C(=O)CNC(=O)c1ccnc2ccc(N3CC(OC(F)F)C3)cc12 please. 2000000 M⁻¹ s⁻¹

Could you do the same for CCC1(F)CN(c2ccc3nccc(C(=O)NCC(=O)N4CSC[C@H]4C#N)c3c2)C1 , please? 2500000 M⁻¹ s⁻¹

Also need N#C[C@@H]1CSCN1C(=O)CNC(=O)c1ccnc2ccc(N3CCSCC3)cc12 , thanks. 4100000 M⁻¹ s⁻¹

Entry N#C[C@@H]1CSCN1C(=O)CNC(=O)c1ccnc2ccc(N3CC4(COC4)C3)cc12 please 2200000 M⁻¹ s⁻¹

Param item: N#C[C@@H]1CSCN1C(=O)CNC(=O)c1ccnc2ccc(N3C[C@@H]4[C@H](C3)[C@H]4C(F)(F)F)cc12 5600000 M⁻¹ s⁻¹

Same read-out for CO[C@H]1CCN(c2ccc3nccc(C(=O)NCC(=O)N4CSC[C@H]4C#N)c3c2)C1 ? 4600000 M⁻¹ s⁻¹

# iterate: N#C[C@@H]1CSCN1C(=O)CNC(=O)c1ccnc2ccc(N3C[C@H](O)C(F)(F)C3)cc12 (mixture of isomers) 3000000 M⁻¹ s⁻¹

Try this molecule next: CCC1(C)CN(c2ccc3nccc(C(=O)NCC(=O)N4CSC[C@H]4C#N)c3c2)C1 9500000 M⁻¹ s⁻¹

Then what about the molecule N#C[C@@H]1CSCN1C(=O)CNC(=O)c1ccnc2ccc(N3CC(F)(C(F)(F)F)C3)cc12 ? 1600000 M⁻¹ s⁻¹

Repeat for the following molecule: COC[C@@H]1CCCN1c1ccc2nccc(C(=O)NCC(=O)N3CSC[C@H]3C#N)c2c1 3300000 M⁻¹ s⁻¹

Another: N#C[C@@H]1CSCN1C(=O)CNC(=O)c1ccnc2ccc(N3CCOC[C@@H]3C(F)(F)F)cc12 (single isomer, unassigned) [Example 84] 1200000 M⁻¹ s⁻¹

Also need C[C@]1(O)CCN(c2ccc3nccc(C(=O)NCC(=O)N4CSC[C@H]4C#N)c3c2)C1 , thanks. 1600000 M⁻¹ s⁻¹

Note, next up: N#C[C@@H]1CSCN1C(=O)CNC(=O)c1ccnc2ccc(N3CCC4(CC4)C3)cc12 8800000 M⁻¹ s⁻¹

Let us now turn to COCC[C@@H]1COCCN1c1ccc2nccc(C(=O)NCC(=O)N3CSC[C@H]3C#N)c2c1 2900000 M⁻¹ s⁻¹

Next entry: Cc1nc(C)c(-c2ccc3nccc(C(=O)NCC(=O)N4CSC[C@H]4C#N)c3c2)o1 1800000 M⁻¹ s⁻¹

Entry to check: N#C[C@@H]1CSCN1C(=O)CNC(=O)c1ccnc2ccc(N3C[C@H](F)[C@@H](F)C3)cc12 4400000 M⁻¹ s⁻¹

And for C[C@@H]1CN(c2ccc3nccc(C(=O)NCC(=O)N4CSC[C@H]4C#N)c3c2)CCCO1 ? 1300000 M⁻¹ s⁻¹

For N#C[C@@H]1CSCN1C(=O)CNC(=O)c1ccnc2ccc(N3CCC[C@H]3C(F)(F)F)cc12 then? 540000 M⁻¹ s⁻¹

Also need N#C[C@@H]1CSCN1C(=O)CNC(=O)c1ccnc2ccc(N3CC4CC(C3)O4)cc12 , thanks. 4800000 M⁻¹ s⁻¹

For CC1(CS(C)(=O)=O)CN(c2ccc3nccc(C(=O)NCC(=O)N4CSC[C@H]4C#N)c3c2)C1 then? 2600000 M⁻¹ s⁻¹

# repeat for N#C[C@@H]1CSCN1C(=O)CNC(=O)c1ccnc2ccc(N3C[C@H]4CCC[C@@H](C3)O4)cc12 1100000 M⁻¹ s⁻¹

Quick one: CCC1(OC)CCN(c2ccc3nccc(C(=O)NCC(=O)N4CSC[C@H]4C#N)c3c2)CC1 1500000 M⁻¹ s⁻¹

# iterate: C[C@H]1CC(F)(F)CCN1c1ccc2nccc(C(=O)NCC(=O)N3CSC[C@H]3C#N)c2c1 (mixture of isomers) 1700000 M⁻¹ s⁻¹
